test system: Mycoplasma synoviae 40A; assay: MIC, broth-dilution microtiter test (Table X); type: cell-based; settings: Mycoplasmopsis synoviae, read-out: MIC
Below, each entry is listed with its recorded MIC.
parameter.measured: MIC (µg/mL)

compound: CCC1OC(=O)CC(O)C(C)C(OC2OC(C)C(O)C(N(C)C)C2O)C(CCN2CC3CCC(C3)C2)CC(C)C(=O)C=CC(C)=CC1COC1OC(C)C(O)C(OC)C1OC (centres unmarked)
quantitative.result: 1.56
--
compound: CCC1OC(=O)CC(O)C(C)C(OC2OC(C)C(O)C(N(C)C)C2O)C(CCN2C3CCCCC3C3CCCCC32)CC(C)C(=O)C=CC(C)=CC1COC1OC(C)C(O)C(OC)C1OC (centres unmarked)
quantitative.result: 0.097
--
compound: CCC1OC(=O)CC(O)C(C)C(OC2OC(C)C(O)C(N(C)C)C2O)C(CCN2CCCCCC2)CC(C)C(=O)C=CC(C)=CC1COC1OC(C)C(O)C(OC)C1OC (centres unmarked)
quantitative.result: 0.39
--
compound: CCC1OC(=O)CC(O)C(C)C(OC2OC(C)C(O)C(N(C)C)C2O)C(CCN2CCCC(C(=O)N(CC)CC)C2)CC(C)C(=O)C=CC(C)=CC1COC1OC(C)C(O)C(OC)C1OC (centres unmarked)
quantitative.result: 1.56
--
compound: CCC1OC(=O)CC(O)C(C)C(OC2OC(C)C(O)C(N(C)C)C2O)C(CCN2CCCCCCC2)CC(C)C(=O)C=CC(C)=CC1COC1OC(C)C(O)C(OC)C1OC (centres unmarked)
quantitative.result: 0.78

###

system: Staphylococcus epidermidis 222; assay: MIC, standard agar-dilution assay (Table IX); type: cell-based; conditions: read-out: MIC

compound: CCC1OC(=O)CC(O)C(C)C(OC2OC(C)C(O)C(N(C)C)C2O)C(CCN2CCc3ccccc3C2)CC(C)C(=O)C=CC(C)=CC1COC1OC(C)C(O)C(OC)C1OC (centres unmarked)
MIC [µg/mL]: 0.25

compound: CCC1OC(=O)CC(O)C(C)C(OC2OC(C)C(O)C(N(C)C)C2O)C(CCN2CCCCCCC2)CC(C)C(=O)C=CC(C)=CC1COC1OC(C)C(O)C(OC)C1OC (centres unmarked)
MIC [µg/mL]: 0.25

compound: CCC1OC(=O)CC(O)C(C)C(OC2OC(C)CC(N(C)C)C2O)C(CCN2CCCCCC2)CC(C)C(=O)C=CC(C)=CC1COC1OC(C)C(O)C(OC)C1OC (centres unmarked)
MIC [µg/mL]: 0.25

compound: CCC1OC(=O)CC(O)C(C)C(OC2OC(C)C(O)C(N(C)C)C2O)C(CCN2CCCC(C)(C)C2)CC(C)C(=O)C=CC(C)=CC1COC1OC(C)C(O)C(OC)C1OC (centres unmarked)
MIC [µg/mL]: 0.25

compound: CCC1OC(=O)CC(O)C(C)C(OC2OC(C)C(O)C(N(C)C)C2O)C(CCN2CC3CCC(CC3)C2)CC(C)C(=O)C=CC(C)=CC1COC1OC(C)C(O)C(OC)C1OC (centres unmarked)
MIC [µg/mL]: 0.12

compound: CCC1OC(=O)CC(O)C(C)C(OC2OC(C)C(O)C(N(C)C)C2O)C(CCN2CCCCCC2)CC(C)C(=O)C=CC(C)=CC1COC1OC(C)C(O)C(O)C1OC (centres unmarked)
MIC [µg/mL]: 1

compound: CCC1OC(=O)CC(O)C(C)C(OC2OC(C)C(O)C(N(C)C)C2O)C(CCN2CCC3(CC2)OCCO3)CC(C)C(=O)C=CC(C)=CC1COC1OC(C)C(O)C(OC)C1OC (centres unmarked)
MIC [µg/mL]: 1

compound: CCC1OC(=O)CC(O)C(C)C(OC2OC(C)C(O)C(N(C)C)C2O)C(CCN2CCC(Cc3ccccc3)CC2)CC(C)C(=O)C=CC(C)=CC1COC1OC(C)C(O)C(OC)C1OC (centres unmarked)
MIC [µg/mL]: 0.25

compound: CCC1OC(=O)CC(O)C(C)C(OC2OC(C)C(OC3CC(C)(O)C(O)C(C)O3)C(N(C)C)C2O)C(CCN2CCCCCC2)CC(C)C(=O)C=CC(C)=CC1COC1OC(C)C(O)C(O)C1OC (centres unmarked)
MIC [µg/mL]: 2

compound: CCC1OC(=O)CC(O)C(C)C(OC2OC(C)C(O)C(N(C)C)C2O)C(CCN2C(C)CCCC2C)CC(C)C(=O)C=CC(C)=CC1COC1OC(C)C(O)C(OC)C1OC (centres unmarked)
MIC [µg/mL]: 2

compound: CCC1OC(=O)CC(O)C(C)C(OC2OC(C)C(O)C(N(C)C)C2O)C(CCN2CC=C(c3ccccc3)CC2)CC(C)C(=O)C=CC(C)=CC1COC1OC(C)C(O)C(OC)C1OC (centres unmarked)
MIC [µg/mL]: 0.25

###

system: Staphyloccus aureus X1.1; assay: MIC, standard agar-dilution assay (Table IX); type: cell-based, Staphylococcus aureus; settings: Staphylococcus aureus, read-out: MIC

compound: CCC1OC(=O)CC(O)C(C)C(OC2OC(C)C(O)C(N(C)C)C2O)C(CCN2CCCCCC2)CC(C)C(=O)C=CC(C)=CC1COC1OC(C)C(O)C(OC)C1OC (stereo not drawn) [Compound D5]
measured.target: Staphyloccus aureus X1.1
MIC, µg/mL: 0.5
//
compound: CCC1OC(=O)CC(O)C(C)C(OC2OC(C)C(O)C(N(C)C)C2O)C(CCN2CCC3(CC2)OCCO3)CC(C)C(=O)C=CC(C)=CC1COC1OC(C)C(O)C(OC)C1OC (stereo not drawn) [Compound D28]
measured.target: Staphyloccus aureus X1.1
MIC, µg/mL: 2
//
compound: CCC1OC(=O)CC(O)C(C)C(OC2OC(C)C(O)C(N(C)C)C2O)C(CCN2CCCc3ccccc32)CC(C)C(=O)C=CC(C)=CC1COC1OC(C)C(O)C(OC)C1OC (stereo not drawn) [Compound D11]
measured.target: Staphyloccus aureus X1.1
MIC, µg/mL: 0.5

###

tested on: Mycoplasma synoviae 40A; assay: MIC, broth-dilution microtiter test (Table X); assay type: cell-based; details: Mycoplasmopsis synoviae, read-out: MIC
Below, each entry is listed with its recorded MIC.

compound: CCC1OC(=O)CC(O)C(C)C(OC2OC(C)C(O)C(N(C)C)C2O)C(CCN2CCCC23CCCCC3)CC(C)C(=O)C=CC(C)=CC1COC1OC(C)C(O)C(OC)C1OC (stereo not shown)
sign: =
MIC (µg/mL): 0.39

compound: CCC1OC(=O)CC(O)C(C)C(OC2OC(C)C(O)C(N(C)C)C2O)C(CCN2CCC3CCCCC32)CC(C)C(=O)C=CC(C)=CC1COC1OC(C)C(O)C(OC)C1OC (stereo not shown)
sign: =
MIC (µg/mL): 0.097

compound: CCC1OC(=O)CC(O)C(C)C(OC2OC(C)C(O)C(N(C)C)C2O)C(CCN2CCc3ccccc32)CC(C)C(=O)C=CC(C)=CC1COC1OC(C)C(O)C(OC)C1OC (stereo not shown)
sign: =
MIC (µg/mL): 0.195

compound: CCC1OC(=O)CC(O)C(C)C(OC2OC(C)C(O)C(N(C)C)C2O)C(CCN2CCCCCCC2)CC(C)C(=O)C=CC(C)=CC1COC1OC(C)C(O)C(O)C1OC (stereo not shown)
sign: =
MIC (µg/mL): 3.12

compound: CCC1OC(=O)CC(O)C(C)C(OC2OC(C)C(OC3CC(C)(O)C(O)C(C)O3)C(N(C)C)C2O)C(CCN2CCCCCCC2)CC(C)C(=O)C=CC(C)=CC1COC1OC(C)C(O)C(OC)C1OC (stereo not shown)
sign: =
MIC (µg/mL): 0.78

compound: CCC1OC(=O)CC(O)C(C)C(OC2OC(C)C(OC3CC(C)(O)C(O)C(C)O3)C(N(C)C)C2O)C(CCN2CC3CCC(CC3)C2)CC(C)C(=O)C=CC(C)=CC1COC1OC(C)C(O)C(OC)C1OC (stereo not shown)
sign: =
MIC (µg/mL): 1.56

compound: CCC1OC(=O)CC(O)C(C)C(OC2OC(C)C(O)C(N(C)C)C2O)C(CCN2CCCc3ccccc32)CC(C)C(=O)C=CC(C)=CC1COC1OC(C)C(O)C(OC)C1OC (stereo not shown)
sign: =
MIC (µg/mL): 0.78

compound: CCC1OC(=O)CC(O)C(C)C(OC2OC(C)C(O)C(N(C)C)C2O)C(CCN2CCC(Cc3ccccc3)CC2)CC(C)C(=O)C=CC(C)=CC1COC1OC(C)C(O)C(OC)C1OC (stereo not shown)
sign: ≤
MIC (µg/mL): 0.048

compound: CCC1OC(=O)CC(O)C(C)C(OC2OC(C)C(O)C(N(C)C)C2O)C(CCN2CCCC3CCCCC32)CC(C)C(=O)C=CC(C)=CC1COC1OC(C)C(O)C(OC)C1OC (stereo not shown)
sign: =
MIC (µg/mL): 0.195

compound: CCC1OC(=O)CC(O)C(C)C(OC2OC(C)C(O)C(N(C)C)C2O)C(CCN2C(C)CCCC2C)CC(C)C(=O)C=CC(C)=CC1COC1OC(C)C(O)C(OC)C1OC (stereo not shown)
sign: =
MIC (µg/mL): 1.56
